Source: patent US20120021972A1

study_target: human GLP-1 receptor (human, UniProt P43220 24-463)
Sequence (P43220 24-463): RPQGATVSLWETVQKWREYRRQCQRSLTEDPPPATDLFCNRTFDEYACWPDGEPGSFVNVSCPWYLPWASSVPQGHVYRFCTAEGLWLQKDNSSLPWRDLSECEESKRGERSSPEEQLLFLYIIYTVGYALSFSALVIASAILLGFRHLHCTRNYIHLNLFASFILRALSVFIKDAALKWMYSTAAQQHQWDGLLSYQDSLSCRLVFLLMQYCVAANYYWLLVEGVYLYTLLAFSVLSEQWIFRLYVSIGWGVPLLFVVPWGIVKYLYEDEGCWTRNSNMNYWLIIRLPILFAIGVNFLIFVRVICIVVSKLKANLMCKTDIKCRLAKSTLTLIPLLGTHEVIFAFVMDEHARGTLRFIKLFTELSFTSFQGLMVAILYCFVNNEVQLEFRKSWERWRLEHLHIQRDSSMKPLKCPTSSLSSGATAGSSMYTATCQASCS
experiment: cell-based or functional assay
Starred links: 1 amine or outer side, 2 acyl side, 3 side chain; linkers in the order of their positions; H or OH if unused. Non-standard residues stand in square brackets, D forms with d. No end group written: not given here. *: point of attachment. AMCB = 2-amino-5-(4-chloro-2-methylphenyl)pentanoic acid, Cc1cc(Cl)ccc1CCC[C@H](N[*:1])C(=O)[*:2]; ACPP = 2-amino-5-(3-chlorophenyl)pentanoic acid, O=C([C@H](CCCc1cccc(Cl)c1)N[*:1])[*:2]; Bip(2'-Et-4'-OMe) = CCc1cc(OC)ccc1-c1ccc(C[C@H](N)C(=O)O)cc1; Leu(5,5,5,5',5',5'-F6) = N[C@@H](CC(C(F)(F)F)C(F)(F)F)C(=O)O; Nva(5-(3,5-Me2Ph)) = Cc1cc(C)cc(CCC[C@H](N)C(=O)O)c1; 2F‑APPA = 2-amino-5-(2-fluorophenyl)pentanoic acid; αMePhe(2-F) = C[C@](N)(Cc1ccccc1F)C(=O)O; hhPhe = N[C@@H](CCCc1ccccc1)C(=O)O; αMeF = C[C@](N)(Cc1ccccc1)C(=O)O; aThr = C[C@H](O)[C@H](N)C(=O)O; αMeP = C[C@@]1(C(=O)O)CCCN1; CNB = not defined here; Ac3c = NC1(C(=O)O)CC1; Aib = CC(C)(N)C(=O)O; Moc = COC(=O)*
endpoint_label: cAMP release, % activity, 100 nM (%)

Entry H[Aib][CNB]GTFTSD[Bip(2'-Et-4'-OMe)][AMCB] (reading uncertain) [Seq. ID. No. 32: H-Aib-(CNB)-GTFTSD-Bip(OMe)-(AMCB)] needs its cAMP release, % activity, 100 nM filled in; supply it. 88

Entry H[Aib][CNB]G[aThr][αMePhe(2-F)][aThr]SD[Bip(2'-Et-4'-OMe)][2F‑APPA] (reading uncertain) [Seq. ID. No. 116: H-Aib-(CNB)-G-T(allo)-(α-Me-2F-Phe)-T(allo)-SD-Bip(OMe)-(2F-APPA)] needs its cAMP release, % activity, 100 nM filled in; supply it. 92

Entry H[Ac3c]QGTFTSD[Bip(2'-Et-4'-OMe)][Nva(5-(3,5-Me2Ph))] [Seq. ID. No. 22: H-(ACP)-QGTFTSD-Bip(OMe)-(ADMP)] needs its cAMP release, % activity, 100 nM filled in; supply it. 99

Entry H[Aib][Leu(5,5,5,5',5',5'-F6)]GT[αMeF]TSD[Bip(2'-Et-4'-OMe)][hhPhe] [Seq. ID. No. 230: H-Aib-(Hfl)-GT-(α-Me-Phe)-TSD-Bip(OMe)-(APPA)] needs its cAMP release, % activity, 100 nM filled in; supply it. 99

Entry H[Aib][CNB]G[aThr][αMePhe(2-F)]TSD[Bip(2'-Et-4'-OMe)][2F‑APPA] (reading uncertain) [Seq. ID. No. 112: H-Aib-(CNB)-G-T(allo)-(α-Me-2F-Phe)-TSD-Bip(OMe)-(2F-APPA)] needs its cAMP release, % activity, 100 nM filled in; supply it. 89

Entry H[αMeP]QGTFTSD[Bip(2'-Et-4'-OMe)][ACPP] [Seq. ID. No. 11: H-(α-Me-Pro)-QGTFTSD-Bip(OMe)-(ACPP)] needs its cAMP release, % activity, 100 nM filled in; supply it. 99

Entry H[Aib][CNB]GT[αMePhe(2-F)][aThr]SD[Bip(2'-Et-4'-OMe)][2F‑APPA] (reading uncertain) [Seq. ID. No. 120: H-Aib-(CNB)-GT-(α-Me-2F-Phe)-T(allo)-SD-Bip(OMe)-(2F-APPA)] needs its cAMP release, % activity, 100 nM filled in; supply it. 99

Entry Moc-H[Aib]QG[aThr][αMePhe(2-F)][aThr]SD[Bip(2'-Et-4'-OMe)][hhPhe] (also: reduced (CH2) bonds between 9-10 and 10-11) [Seq. ID. No. 198: CH3OCO-H-Aib-QG-T(allo)-(α-Me-2F-Phe)-T(allo)-SD-(CH2)-Bip(OMe)-(CH2)-(APPA)] needs its cAMP release, % activity, 100 nM filled in; supply it. 92

Entry H[Aib][Leu(5,5,5,5',5',5'-F6)]GT[αMePhe(2-F)]TSD[Bip(2'-Et-4'-OMe)][AMCB] [Seq. ID. No. 237: H-Aib-(Hfl)-GT-(α-Me-2F-Phe)-TSD-Bip(OMe)-(AMCB)] needs its cAMP release, % activity, 100 nM filled in; supply it. 99

Entry HAQGTFTSD[Bip(2'-Et-4'-OMe)][AMCB] [Seq. ID. No. 16: HAQGTFTSD-Bip(OMe)-(AMCB)] needs its cAMP release, % activity, 100 nM filled in; supply it. 99
